Read-out: Forkhead box O3 (FOXO3), FOXO3 (gene 2309)
test.summary: LTEA_HepaRG_FOXO3: Life Technologies and Expression Analysis (LTEA) Assay for Forkhead box O3 (FOXO3) using HepaRG (AID 2283459)
condition.description: mRNA level, 48 h; actives raise or lower the signal
Activity calls are given as the source filed them. The calls were made as follows: active = hit-call score of the fitted dose curve at least 0.9, where 1 is the maximum; inactive = score below 0.9.
Return exactly one item of active, inactive

Hi, sorry to bother you, what did the test record for "O=C1CN(N=Cc2ccc([N+](=O)[O-])o2)C(=O)N1" ?
inactive

Hi, sorry to bother you, what did the test record for "CCOc1ccc2[nH]cc(C(=O)NCc3ccccc3)c(=O)c2n1" ?
inactive

Hi, sorry to bother you, what did the test record for "C=CCc1cc(S(=O)(=O)c2ccc(O)c(CC=C)c2)ccc1O" ?
active

Hi, sorry to bother you, what did the test record for "OC(Cn1cncn1)(Cn1cncn1)c1ccc(F)cc1F" ?
inactive

Hi, sorry to bother you, what did the test record for "OCc1ccccc1" ?
inactive

Hi, sorry to bother you, what did the test record for "CCCCN1C(=O)[C@@H]([C@H](O)C2CCCCC2)NC(=O)C12CCN(Cc1ccc(Oc3ccc(C(=O)O)cc3)cc1)CC2" ?
active

Hi, sorry to bother you, what did the test record for "Cc1ncc([C@@H](CCCCCCc2ccc3c(n2)NCCC3)CC(=O)O)cn1" ?
inactive

Hi, sorry to bother you, what did the test record for "O=S(=O)(O)c1ccc(N=Nc2c(O)ccc3cc(S(=O)(=O)O)ccc23)cc1" ?
inactive

Continuing:
Hi, sorry to bother you, what did the test record for CCCCCCCC1CCC(=O)O1 (stereo unspecified) ?
inactive

Hi, sorry to bother you, what did the test record for "O=C(O)c1ccc2c(c1)nc(C(=O)NC1CCN(C3CC3)CC1)n2Cc1cc(-c2ccc(Cl)s2)on1" ?
inactive

Hi, sorry to bother you, what did the test record for "Cn1c(=O)c2[nH]cnc2n(C)c1=O" ?
inactive

====

Read-out: Macrophage colony-stimulating factor (MCSF), CSF1 (gene 1435)
test.summary: BSK_hDFCGF_MCSF: BioMAP Diversity Plus: hDFCGF Assay for Macrophage colony-stimulating factor (MCSF) Biomarker Activity (AID 2283060)
condition.description: primary human foreskin fibroblasts; actives raise or lower the signal
Calls of active or inactive are those of the source. How the source made its calls: active means hit-call score of the fitted dose curve at least 0.9, where 1 is the maximum; inactive means score below 0.9.
Return exactly one item of active, inactive

# count of solved cases: 8
Hi, sorry to bother you, what did the test record for "c1ccc2c(c1)-c1cccc3c1c-2cc1ccccc13" ?
inactive

Hi, sorry to bother you, what did the test record for CCCCCCCC1CCC(=O)O1 (stereo unspecified) ?
inactive

Hi, sorry to bother you, what did the test record for "C[C@]12C=CC(=O)C=C1CC[C@H]1[C@@H]3C[C@@H](O)[C@](O)(C(=O)CO)[C@@]3(C)C[C@H](O)[C@@]12F" ?
active

Hi, sorry to bother you, what did the test record for "CC(C)c1nnc2ccc(-c3ocnc3-c3cc(F)ccc3F)cn12" ?
inactive

Hi, sorry to bother you, what did the test record for "NC(=O)N(O)[C@@H]1COc2cc(OCc3ccccc3)ccc21" ?
inactive

Hi, sorry to bother you, what did the test record for "CCOC(N)=O" ?
inactive

Hi, sorry to bother you, what did the test record for "O=C(O)c1ccc2c(c1)nc(C(=O)NC1CCN(C3CC3)CC1)n2Cc1cc(-c2ccc(Cl)s2)on1" ?
inactive

Hi, sorry to bother you, what did the test record for "OCCC(F)(F)C(F)(F)C(F)(F)C(F)(F)F" ?
inactive

Continuing:
Hi, sorry to bother you, what did the test record for "COS(C)(=O)=O" ?
inactive

Hi, sorry to bother you, what did the test record for "O=C1CN(N=Cc2ccc([N+](=O)[O-])o2)C(=O)N1" ?
inactive

Hi, sorry to bother you, what did the test record for "CCc1ccc(O)c(C(C)(C)C)c1" ?
active

Hi, sorry to bother you, what did the test record for "C=CCc1cc(S(=O)(=O)c2ccc(O)c(CC=C)c2)ccc1O" ?
active

Hi, sorry to bother you, what did the test record for "CC(C)C(=O)Nc1ccc([N+](=O)[O-])c(C(F)(F)F)c1" ?
inactive

Hi, sorry to bother you, what did the test record for "OC[C@H]1O[C@@H]2O[C@H]3[C@H](O)[C@@H](O)[C@@H](O[C@H]4[C@H](O)[C@@H](O)[C@@H](O[C@H]5[C@H](O)[C@@H](O)[C@@H](O[C@H]6[C@H](O)[C@@H](O)[C@@H](O[C@H]7[C@H](O)[C@@H](O)[C@@H](O[C@H]1[C@H](O)[C@H]2O)O[C@@H]7CO)O[C@@H]6CO)O[C@@H]5CO)O[C@@H]4CO)O[C@@H]3CO" ?
inactive

Hi, sorry to bother you, what did the test record for "CC(=O)c1ccccc1" ?
inactive

Hi, sorry to bother you, what did the test record for "OCc1c[nH]c2ccccc12" ?
inactive

Hi, sorry to bother you, what did the test record for "C=CN1CCCC1=O" ?
inactive

Hi, sorry to bother you, what did the test record for "CCCCN1C(=O)[C@@H]([C@H](O)C2CCCCC2)NC(=O)C12CCN(Cc1ccc(Oc3ccc(C(=O)O)cc3)cc1)CC2" ?
inactive

Hi, sorry to bother you, what did the test record for "Cc1nc(-c2ccccn2)ncc1C(=O)Nn1cc(C)c2cc(F)ccc21" ?
inactive

Hi, sorry to bother you, what did the test record for "S=P(N1CC1)(N1CC1)N1CC1" ?
inactive

Hi, sorry to bother you, what did the test record for "OC[C@H]1O[C@@](CO)(O[C@H]2O[C@H](CO)[C@@H](O)[C@H](O)[C@H]2O)[C@@H](O)[C@@H]1O" ?
inactive
